The reported measurements were obtained from ChEMBL document CHEMBL3098086.

tested on: Salmonella typhi; assay: Antibacterial activity against Bacillus typhi after 24 hrs by twofold serial dilution method; type: functional, Salmonella enterica subsp. enterica serovar Typhi; settings: Salmonella enterica
reported endpoint: MIC (µg/mL)

| smiles representation | reported result |
| --- | --- |
| COc1ccc(/C=C(/C(=O)c2ccc(F)cc2F)n2cncn2)cc1 | 32 |
| O=C(/C(=C/c1ccccc1)n1cncn1)c1ccc(F)cc1N1CCCCC1 | 8 |
| O=C(/C(=C/c1ccccc1)n1cncn1)c1ccc(N2CCOCC2)cc1N1CCOCC1 | 32 |
| Cc1ccc(C(=O)/C(=C/c2ccccc2)n2cncn2)c(C)c1 | 128 |
| O=C(/C(=C/c1ccccc1)n1cncn1)c1ccc(F)cc1N1CCOCC1 | 32 |
| O=C(/C(=C/c1ccccc1)n1cncn1)c1ccc(N2CCCCC2)cc1N1CCCCC1 | 32 |
| O=C(/C(=C/c1ccc(F)cc1)n1cncn1)c1ccc(F)cc1F | 32 |
| O=C(/C(=C/c1ccccc1)n1cncn1)c1ccc(F)cc1F | 32 |
| O=C(/C(=C/c1ccc(Cl)cc1)n1cncn1)c1ccc(F)cc1F | 32 |
| Cc1ccc(/C=C(/C(=O)c2ccc(F)cc2F)n2cncn2)cc1 | 64 |
| Cc1ccc(C(=O)/C(=C/c2ccccc2)n2cncn2)cc1C | 128 |
